Target: T1, human complement component C5 (human, UniProt P01031 19-673; P01031 678-1676)
T1 construct: mature; Mature C5 is a disulphide-linked beta and alpha chain cut from one precursor; Terbium-labelled in the FRET assays, biotinylated in part of the phage ELISA; also called human C5; C5-Tb
T1 sequence (P01031 19-673 limits assumed, chain 1 of 2): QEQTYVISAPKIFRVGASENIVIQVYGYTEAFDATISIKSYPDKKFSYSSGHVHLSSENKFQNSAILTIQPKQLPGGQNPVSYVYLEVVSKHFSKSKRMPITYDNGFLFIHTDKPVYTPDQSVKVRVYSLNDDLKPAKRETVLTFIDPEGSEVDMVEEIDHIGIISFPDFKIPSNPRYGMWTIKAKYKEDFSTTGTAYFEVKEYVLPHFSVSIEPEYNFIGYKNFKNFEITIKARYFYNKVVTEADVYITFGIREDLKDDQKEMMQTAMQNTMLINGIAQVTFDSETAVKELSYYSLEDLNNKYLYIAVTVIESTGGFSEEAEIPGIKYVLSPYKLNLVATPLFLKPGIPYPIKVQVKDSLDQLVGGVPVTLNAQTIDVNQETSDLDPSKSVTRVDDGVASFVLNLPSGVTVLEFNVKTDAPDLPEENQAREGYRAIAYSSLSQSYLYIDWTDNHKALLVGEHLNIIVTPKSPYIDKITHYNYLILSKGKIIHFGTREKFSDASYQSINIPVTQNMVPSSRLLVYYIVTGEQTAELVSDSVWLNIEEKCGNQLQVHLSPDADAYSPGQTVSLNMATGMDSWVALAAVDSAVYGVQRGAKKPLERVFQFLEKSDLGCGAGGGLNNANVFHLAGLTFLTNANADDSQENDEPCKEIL
T1 sequence (P01031 678-1676 limits assumed, chain 2 of 2): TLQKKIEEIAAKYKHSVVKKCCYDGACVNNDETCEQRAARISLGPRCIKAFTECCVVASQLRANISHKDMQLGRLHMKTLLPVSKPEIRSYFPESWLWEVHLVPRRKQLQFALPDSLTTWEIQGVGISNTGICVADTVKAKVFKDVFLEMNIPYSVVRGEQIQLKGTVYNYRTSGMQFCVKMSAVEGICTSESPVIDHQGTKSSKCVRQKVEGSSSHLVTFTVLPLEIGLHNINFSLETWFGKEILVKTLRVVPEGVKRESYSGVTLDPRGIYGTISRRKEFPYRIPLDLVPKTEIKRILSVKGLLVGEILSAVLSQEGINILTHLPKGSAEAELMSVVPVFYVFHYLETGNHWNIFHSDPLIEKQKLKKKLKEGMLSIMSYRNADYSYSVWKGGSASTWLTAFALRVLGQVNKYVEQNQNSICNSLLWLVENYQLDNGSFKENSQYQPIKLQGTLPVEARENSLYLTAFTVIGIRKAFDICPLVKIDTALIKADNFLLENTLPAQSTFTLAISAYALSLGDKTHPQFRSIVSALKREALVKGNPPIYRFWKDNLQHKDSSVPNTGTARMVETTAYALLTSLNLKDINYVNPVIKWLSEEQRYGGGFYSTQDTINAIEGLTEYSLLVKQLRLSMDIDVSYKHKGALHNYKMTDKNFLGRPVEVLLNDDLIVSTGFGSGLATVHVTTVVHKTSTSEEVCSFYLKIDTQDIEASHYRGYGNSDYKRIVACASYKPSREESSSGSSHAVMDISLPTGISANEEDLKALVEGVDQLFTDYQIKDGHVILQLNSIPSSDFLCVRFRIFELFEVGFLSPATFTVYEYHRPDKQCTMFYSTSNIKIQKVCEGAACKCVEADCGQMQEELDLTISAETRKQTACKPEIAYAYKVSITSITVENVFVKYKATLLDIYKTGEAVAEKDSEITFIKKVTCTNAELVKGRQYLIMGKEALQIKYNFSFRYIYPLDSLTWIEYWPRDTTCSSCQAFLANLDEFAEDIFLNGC
Assay: SPR multi-cycle kinetics, human C5 immobilised, mean of n=3
REPORTED_ENDPOINT: koff
// unit must come after the numeric part

{"columns": ["BINDER", "koff"],
 "data": [
  ["TCPEGWSECGVAIYGYECGRAGCGHFLNSGPNISPYVST [K92chemFE W21A]", "0.00848 s⁻¹"],
  ["TCPEGWSECGVAIYGYECGRWGCGHALNSGPNISPYVST [K92chemFE F26A]", "0.00328 s⁻¹"],
  ["TCPEGASECGVAIYGYECGRWGCGHFLNSGPNISPYVST [K92chemFE W6A]", "0.00157 s⁻¹"],
  ["TCPEGWSECGVAIYGAECGRWGCGHFLNSGPNISPYVST [K92chemFE Y16A]", "0.786 s⁻¹"],
  ["TCPEGWSECGVAIYGYECGRHGCGHFLNSGPNISPYVST [K92chemFE W21H]", "0.000612 s⁻¹"]
]}

Proceeding to the next binder to report its koff.
// query May I ask what koff has been recorded for TCPEGWSECGVAIAGYECGRWGCGHFLNSGPNISPYVST [K92chemFE Y14A] ?
// result 0.0001 s⁻¹
